Listed next: entries and their corresponding Vd.
assay: Volume of distribution in mouse at 5 mg/kg, iv and 10 mg/kg, po; format: ADME, organism-based; conditions: in vivo
Report as a plain number; the unit L/kg is understood.

A selection of reference data follows.
| Smiles Input | Unit Label | Vd |
| --- | --- | --- |
| CNCC(=O)N[C@H](c1cccc(F)c1N1CCN(C(=O)[C@H](C)Cc2ccc(Cl)cc2Cl)CC1)C(C)C | L/kg | 13 |
| CNCCN[C@H](c1cccc(F)c1N1CCN(C(=O)[C@H](C)Cc2ccc(Cl)cc2)CC1)C(C)C | L/kg | 52 |
| COc1cc(Cl)ccc1C[C@@H](C)C(=O)N1CCN(c2ccc(Cl)cc2[C@@H](NC(=O)[C@@H](C)N)C(C)C)CC1 | L/kg | 16 |
| CC(C)[C@H](NC(=O)CCN(C)C)c1cc(Cl)ccc1N1CCN(C(=O)[C@H](C)Cc2ccc(Cl)cc2)CC1 | L/kg | 11 |
| COc1cc(Cl)ccc1C[C@@H](C)C(=O)N1CCN(c2c(F)cccc2[C@@H](NC(=O)C2CNC2)C(C)C)CC1 | L/kg | 10 |

# evaluate next
Request: Fill in: Vd of `CNCC(=O)N[C@H](c1cc(Cl)ccc1N1CCN(C(=O)[C@H](C)Cc2ccc(Cl)cc2OC)CC1)C(C)C` is ___
Response: 11

----------
experiment: Drug level in mouse brain at 5 mg/kg, iv after 4 hrs; assay type: ADME, organism-based; design: dose 5 mg/kg, route intravenous; conditions: read-out: Drug uptake
Rule: concentration at 4 h under 40 ng/g gives -1, otherwise 1.

| Smiles Input | Group Label |
| --- | --- |
| CNCCN[C@H](c1cccc(F)c1N1CCN(C(=O)[C@H](C)Cc2ccc(Cl)cc2)CC1)C(C)C | 1 |
| CC(C)[C@H](NC(=O)CCN(C)C)c1cccc(F)c1N1CCN(C(=O)[C@H](C)Cc2ccc(Cl)cc2)CC1 | 1 |
| CNCC(=O)N[C@H](c1cccc(F)c1N1CCN(C(=O)[C@H](C)Cc2ccc(Cl)cc2Cl)CC1)C(C)C | 1 |
| COc1cc(Cl)ccc1C[C@@H](C)C(=O)N1CCN(c2c(F)cccc2[C@@H](NC(=O)C2CNC2)C(C)C)CC1 | -1 |

Request: Entry `CNCC(=O)N[C@H](c1cc(C)ccc1N1CCN(C(=O)[C@H](C)Cc2ccc(Cl)cc2F)CC1)C(C)C` : is its concentration at 4 h no less than 40 ng/g?
Response: 1

----------
assay: Drug level in LLC tumor bearing C57BL/6J mouse brain at 20 mg/kg, po twice daily after 2 hrs on day 4 of administration; assay type: ADME, organism-based; parameters: dose 20 mg/kg, route oral
Measured Metric: concentration at 2 h (ng/g)
Report as a plain number; the unit ng/g is understood.

Request: Fill in: concentration at 2 h of `Cc1ccc(N2CCN(C(=O)[C@H](C)Cc3ccc(Cl)cc3)CC2)c([C@@H](NC(=O)CCN(C)C)C(C)C)c1` is ___
Response: 36

----------
assay: Ratio of Cmax in brain to plasma in rat at 10 mg/kg, po after 4 hrs; assay type: ADME, organism-based; set-up: dose 10 mg/kg, route oral; conditions: brain and plasma
Measured Metric: Kp at 4 h
Give the figure by itself; no unit, no explanation.

Request: Fill in: Kp at 4 h of `CC(C)[C@H](NC(=O)CCN(C)C)c1cccc(F)c1N1CCN(C(=O)[C@H](C)Cc2ccc(Cl)cc2)CC1` is ___
Response: 0.2

----------
test: Cmax in mouse at 5 mg/kg, iv and 10 mg/kg, po; assay type: ADME, organism-based; settings: in vivo
Measured Metric: Cmax (ng/mL)
Report as a plain number; the unit ng/mL is understood.

| Smiles Input | Unit Label | Cmax |
| --- | --- | --- |
| CNCC(=O)N[C@H](c1cc(Cl)ccc1N1CCN(C(=O)[C@H](C)Cc2ccc(Cl)cc2OC)CC1)C(C)C | ng/mL | 55 |
| CNCC(=O)N[C@H](c1cc(Cl)ccc1N1CCN(C(=O)[C@H](C)Cc2ccc(Cl)cc2)CC1)C(C)C | ng/mL | 88 |

Request: Fill in: Cmax of `CC(C)[C@H](NC(=O)CCN(C)C)c1cccc(F)c1N1CCN(C(=O)[C@H](C)Cc2ccc(Cl)cc2)CC1` is ___
Response: 308

Request: Fill in: Cmax of `CNCC(=O)N[C@H](c1cc(C)ccc1N1CCN(C(=O)[C@H](C)Cc2ccc(Cl)cc2F)CC1)C(C)C` is ___
Response: 632

Request: Fill in: Cmax of `COc1cc(Cl)ccc1C[C@@H](C)C(=O)N1CCN(c2c(F)cccc2[C@@H](NC(=O)C2CNC2)C(C)C)CC1` is ___
Response: 104

----------
assay: Drug level in LLC tumor bearing C57BL/6J mouse plasma at 20 mg/kg, po twice daily after 12 hrs on day 1 of administration; assay type: ADME, organism-based; design: dose 20 mg/kg, route oral
Measured Metric: concentration at 12 h
The reply should read as a number followed by its unit.

Request: Fill in: concentration at 12 h of `Cc1ccc(N2CCN(C(=O)[C@H](C)Cc3ccc(Cl)cc3)CC2)c([C@@H](NC(=O)CCN(C)C)C(C)C)c1` is ___
Response: 430 ng/mL

----------
experiment: Drug level in rat brain at 10 mg/kg, po after 1 hr; assay type: ADME, organism-based; parameters: dose 10 mg/kg, route oral; conditions: read-out: Drug uptake
Measured Metric: concentration at 1 h (ng/g)
Report as a plain number; the unit ng/g is understood.

Request: Fill in: concentration at 1 h of `CC(C)[C@H](NC(=O)CCN(C)C)c1cccc(F)c1N1CCN(C(=O)[C@H](C)Cc2ccc(Cl)cc2)CC1` is ___
Response: 6.3

----------
experiment: Ratio of Cmax in brain to plasma in mouse at 5 mg/kg, iv and 10 mg/kg, po; type: ADME, organism-based
Measured Metric: Kp
Give the figure by itself; no unit, no explanation.

Request: Fill in: Kp of `Cc1ccc(N2CCN(C(=O)[C@H](C)Cc3ccc(Cl)cc3)CC2)c([C@@H](NC(=O)CCN(C)C)C(C)C)c1` is ___
Response: 0.1

----------
test: Drug level in LLC tumor bearing C57BL/6J mouse plasma at 20 mg/kg, po twice daily after 24 hrs; type: ADME, organism-based; set-up: dose 20 mg/kg, route oral
Measured Metric: concentration at 24 h (ng/mL)
Report as a plain number; the unit ng/mL is understood.

Request: Fill in: concentration at 24 h of `Cc1ccc(N2CCN(C(=O)[C@H](C)Cc3ccc(Cl)cc3)CC2)c([C@@H](NC(=O)CCN(C)C)C(C)C)c1` is ___
Response: 140

----------
test: Tmax in monkey at 5 mg/kg, iv and 10 mg/kg, po; format: ADME, organism-based, Macaca mulatta; settings: rhesus monkey, in vivo
Measured Metric: Tmax (h)
Report as a plain number; the unit h is understood.

Request: Fill in: Tmax of `CC(C)[C@H](NC(=O)CCN(C)C)c1cccc(F)c1N1CCN(C(=O)[C@H](C)Cc2ccc(Cl)cc2)CC1` is ___
Response: 6.7

----------
Listed next: entries and their corresponding Vd.
experiment: Volume of distribution in mouse at 5 mg/kg, iv and 10 mg/kg, po; format: ADME, organism-based; conditions: in vivo
Report as a plain number; the unit L/kg is understood.

A selection of reference data follows.
| Smiles Input | Vd [L/kg] |
| --- | --- |
| CC(C)[C@H](NC(=O)CCN(C)C)c1cccc(F)c1N1CCN(C(=O)[C@H](C)Cc2ccc(Cl)cc2)CC1 | 5.2 |
| CNCC(=O)N[C@H](c1cc(Cl)ccc1N1CCN(C(=O)[C@H](C)Cc2ccc(Cl)cc2)CC1)C(C)C | 16 |
| CNCC(=O)N[C@H](c1cccc(F)c1N1CCN(C(=O)[C@H](C)Cc2ccc(Cl)cc2)CC1)C(C)C | 19 |

Request: Fill in: Vd of `CC(C)[C@H](NC(=O)C1CN(C)C1)c1cc(Cl)ccc1N1CCN(C(=O)[C@H](C)Cc2ccc(Cl)cc2)CC1` is ___
Response: 3

----------
test: AUC in mouse at 10 mg/kg, po; type: ADME, organism-based; set-up: dose 10 mg/kg, route oral; details: plasma
Listed next: entries and their corresponding log10 of AUC.
Values below are the log10 of the recorded AUC, with ng·h/mL as the unit.

| Smiles Input | log10 of AUC |
| --- | --- |
| CC(C)[C@H](NC(=O)CCN(C)C)c1cc(Cl)ccc1N1CCN(C(=O)[C@H](C)Cc2ccc(Cl)cc2)CC1 | 2.78 |
| CC(C)[C@H](NC(=O)CCN(C)C)c1cccc(F)c1N1CCN(C(=O)[C@H](C)Cc2ccc(Cl)cc2)CC1 | 3.43 |
| CNCCN[C@H](c1cccc(F)c1N1CCN(C(=O)[C@H](C)Cc2ccc(Cl)cc2)CC1)C(C)C | 3.21 |

Request: Fill in: log10 of AUC of `COc1cc(Cl)ccc1C[C@@H](C)C(=O)N1CCN(c2ccc(Cl)cc2[C@@H](NC(=O)[C@@H](C)N)C(C)C)CC1` is ___
Response: 2.60

Request: Fill in: log10 of AUC of `CC(C)[C@H](NC(=O)C1CN(C)C1)c1cc(Cl)ccc1N1CCN(C(=O)[C@H](C)Cc2ccc(Cl)cc2)CC1` is ___
Response: 3.96

Request: Fill in: log10 of AUC of `CNCC(=O)N[C@H](c1cc(Cl)ccc1N1CCN(C(=O)[C@H](C)Cc2ccc(Cl)cc2)CC1)C(C)C` is ___
Response: 2.37

Request: Fill in: log10 of AUC of `CNCC(=O)N[C@H](c1cc(Cl)ccc1N1CCN(C(=O)[C@H](C)Cc2ccc(Cl)cc2OC)CC1)C(C)C` is ___
Response: 2.32

Request: Fill in: log10 of AUC of `COc1cc(Cl)ccc1C[C@@H](C)C(=O)N1CCN(c2c(F)cccc2[C@@H](NC(=O)C2CNC2)C(C)C)CC1` is ___
Response: 2.53

Request: Fill in: log10 of AUC of `CNCC(=O)N[C@H](c1cccc(F)c1N1CCN(C(=O)[C@H](C)Cc2ccc(Cl)cc2OC)CC1)C(C)C` is ___
Response: 2.57
